Tested on: 217524-143-R1-J4-PDC spheroids with HUVEC/MSC, viability
measurement notes: Anticancer human tumor 217524-143-R1-J4-PDC patient-derived pancreatic carcinoma cell line growth inhibition [CLK]
stated conditions: second compound 0.316 µM; first compound 0.316 µM; hits give low values
Kindly supply the reported viability, T/C values for the records listed here.
Report as a plain number; the unit % is understood.

### Prompt So what does the record say about viability, T/C for CC(=O)O[C@H]1C(=O)[C@@]2(C)[C@H]([C@H](OC(=O)c3ccccc3)[C@]3(O)C[C@H](OC(=O)[C@H](O)[C@@H](NC(=O)c4ccccc4)c4ccccc4)C(C)=C1C3(C)C)[C@]1(OC(C)=O)CO[C@@H]1C[C@@H]2O + CNC(=O)c1ccc(Nc2nc(OC3CCCC3)c3c(-c4ccc5nc(C)oc5c4)c[nH]c3n2)c(OC)c1 ?
### Response 37

### Prompt Try this compound next: CC1(C)CCC(CN2CCN(c3ccc(C(=O)NS(=O)(=O)c4ccc(NCC5CCOCC5)c([N+](=O)[O-])c4)c(Oc4cnc5[nH]ccc5c4)c3)CC2)=C(c2ccc(Cl)cc2)C1 + CNC(=O)c1ccc(Nc2nc(OC3CCCC3)c3c(-c4ccc5nc(C)oc5c4)c[nH]c3n2)c(OC)c1
### Response 38.7

### Prompt Try this compound next: COc1c(OCCCN2CCOCC2)ccc2c3n(c(=NC(=O)c4cnc(N)nc4)nc12)CCN3 + CNC(=O)c1ccc(Nc2nc(OC3CCCC3)c3c(-c4ccc5nc(C)oc5c4)c[nH]c3n2)c(OC)c1
### Response 2.58

### Prompt Try this compound next: C#Cc1c(F)ccc2cc(O)cc(-c3ncc4c(N5CC6CCC(C5)N6)nc(OCC56CCCN5CC(F)C6)nc4c3F)c12 (centres undefined) + CNC(=O)c1ccc(Nc2nc(OC3CCCC3)c3c(-c4ccc5nc(C)oc5c4)c[nH]c3n2)c(OC)c1
### Response 38.2

----------
System: 217524-143-R1-J4-PDC spheroids with HUVEC/MSC, viability
measurement notes: Anticancer human tumor 217524-143-R1-J4-PDC cell line growth inhibition [CLK]; active = viability on the fitted dose curve at most 10% of control; inactive = the rest;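 also: spheroids exposed to agents for seven days before reading; 100% = DMSO vehicle control viability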
stated conditions: second compound 1 µM; first compound 0.003 µM
Respond using exactly one of the listed classes: y (active), n (inactive)

### Prompt In this assay, the call recorded for C=CC(=O)Nc1cc(Nc2nccc(-c3cn(C)c4ccccc34)n2)c(OC)cc1N(C)CCN(C)C + CN1CCN(c2cc(C(=O)Nc3cc4cc(-c5cnn(C)c5)ccc4cn3)ccn2)CC1 was what?
### Response y

### Prompt Try this molecule next: C=CC(=O)Nc1cc(Nc2nccc(-c3cn(C)c4ccccc34)n2)c(OC)cc1N(C)CCN(C)C + CNC(=O)c1ccc(Nc2nc(OC3CCCC3)c3c(-c4ccc5nc(C)oc5c4)c[nH]c3n2)c(OC)c1
### Response n

### Prompt Try this molecule next: CC(C)CC(NC(=O)C(Cc1ccccc1)NC(=O)c1cnccn1)B(O)O (centres undefined) + CNC(=O)c1ccc(Nc2nc(OC3CCCC3)c3c(-c4ccc5nc(C)oc5c4)c[nH]c3n2)c(OC)c1
### Response n

### Prompt Try this molecule next: CC(C)CC(NC(=O)C(Cc1ccccc1)NC(=O)c1cnccn1)B(O)O (centres undefined) + CN1CCN(c2cc(C(=O)Nc3cc4cc(-c5cnn(C)c5)ccc4cn3)ccn2)CC1
### Response y
